# Tested on: serum IgM anti-estrogen antibodies
# experiment: ELISA binding of IgM estrogen antibodies to different hormones in solid phase
# Set-up: species or system human
# stated conditions: sample 2; hormone in solid phase; 405 nm
test readout: IgM binding (optical density)
No unit in the answer, please; the number alone is enough.

compound="CC(C)CCC[C@@H](C)[C@H]1CC[C@H]2[C@@H]3CC=C4C[C@@H](O)CC[C@]4(C)[C@H]3CC[C@]12C [C, Cholesterol]" test_system="serum IgM anti-estrogen antibodies" assay_value=0.25
compound="C[C@]12CCC(=O)C=C1CC[C@@H]1[C@@H]2[C@@H](O)C[C@@]2(C)[C@H]1CC[C@]2(O)C(=O)CO [HC, Hydrocortisone]" test_system="serum IgM anti-estrogen antibodies" assay_value=0.44
compound="CC(=O)[C@H]1CC[C@H]2[C@@H]3CCC4=CC(=O)CC[C@]4(C)[C@H]3CC[C@]12C [Progesterone, progesterone]" test_system="serum IgM anti-estrogen antibodies" assay_value=0.65

Proceed to the following item.
-- ask Item CC(=O)[C@@]1(O)CC[C@H]2[C@@H]3CCC4=CC(=O)CC[C@]4(C)[C@H]3CC[C@@]21C [HP, 17-α-hydroxy-progesterone] with serum IgM anti-estrogen antibodies - IgM binding (optical density)?
-- reply 0.88
